Taken from patent US20250186627A1.

Test system: NRG-mice bearing LNCaP tumors
assayName: Biodistribution (and PET/SPECT imaging) in NRG-mice bearing LNCaP tumors
Type: in vivo
protocolConditions: 3 h p.i., Avg
*1 amine or outer side, *2 acyl side, *3 side chain or, on linkers, in order; H or OH if unused. Where a SMILES comes first, the peptide text is derived from it. [ ]: non-standard residue; d: D form. The star is where a group is joined. ξ: configuration not given here. ξLys(Nα-CO-ξAad) = O=C(O)CCCC(NC(=O)NC(CCCCN*)C(=O)O)C(=O)O; Butanoyl(4-(4-NO2Ph)) = O=C(CCCc1ccc([N+](=O)[O-])cc1)*; DOTA = O=C(O)CN1CCN(CC(=O)O)CCN(CC(=O)*)CCN(CC(=O)O)CC1; ξAla(9-anthryl) = NC(Cc1c2ccccc2cc2ccccc12)C(=O)O; X2 = O=C(NC(CCCCN*)C(=O)O)NC(CC(F)C(=O)O)C(=O)O; X1 = O=C(C1CCC(CN[*:1])CC1)[*:2]; ξK = NCCCCC(N)C(=O)O
measurementKind: Biodistribution: Lungs (% ID/g)
Hi! Could you send only the number? It should be in % ID/g, unit omitted.

O=C([O-])CN1CCN(CC(=O)[O-])CCN(CC(=O)NCCCCC(NC(=O)CNC(=O)CCCc2ccc([N+](=O)[O-])cc2)C(=O)NCC(=O)NCC2CCC(C(=O)NC(Cc3c4ccccc4cc4ccccc34)C(=O)NCCCCC(NC(=O)NC(CC(F)C(=O)O)C(=O)O)C(=O)O)CC2)CCN(CC(=O)[O-])CC1.[68Ga+3] (stereo not drawn) [^68Ga-CCZ02025] ({Butanoyl(4-(4-NO2Ph))}-G[ξK](DOTA)G[X1][ξAla(9-anthryl)]-X2) | 5.21
COc1ccc(CCCC(=O)NCC(=O)NC(CCCCNC(=O)CN2CCN(CC(=O)[O-])CCN(CC(=O)[O-])CCN(CC(=O)[O-])CC2)CC(=O)NCC2CCC(C(=O)NC(Cc3c4ccccc4cc4ccccc34)C(=O)NCCCCC(NC(=O)NC(CCCC(=O)O)C(=O)O)C(=O)O)CC2)cc1.[68Ga+3] (stereo not drawn) [^68Ga-CCZ02015] | 4.65

With those in mind, consider the next compound.
Prompt: Value lookup for Biodistribution: Lungs; key = O=C([O-])CN1CCN(CC(=O)[O-])CCN(CC(=O)NCCCCC(NC(=O)CNC(=O)CCCc2ccc([N+](=O)[O-])cc2)C(=O)NCC(=O)NCC2CCC(C(=O)NC(Cc3c4ccccc4cc4ccccc34)C(=O)NCCCCC(NC(=O)NC(CCCC(=O)O)C(=O)O)C(=O)O)CC2)CCN(CC(=O)[O-])CC1.[177Lu+3] (stereo not drawn) [^177Lu-CCZ02017] ({Butanoyl(4-(4-NO2Ph))}-G[ξK](DOTA)G[X1][ξAla(9-anthryl)]-{ξLys(Nα-CO-ξAad)})
Completion: 6.68
